// provenance: patent US9737535B2

- Tested on: BT-474
- MEASUREMENT_NOTES: Anti-proliferation assay (ATPLite), Chalice synergy score
- Format: cell-based
- TEST_CONDITIONS: Compound 1 in combination with the named second active agent, 72 h, mean of n = 3 experiments in triplicate
Field: Synergy score. Provide a value for each of the compounds that follow.
Please give the numeric answer without any surrounding text.

# Synergy score (compound: CN(C)CCCn1cc(C2=C(c3c[nH]c4ccccc34)C(=O)NC2=O)c2ccccc21 [GF 109203X] ) is 0.47

For OCCn1cc(-c2cnc3nnn(Cc4ccc5ncccc5c4)c3n2)cn1 [PF-04217903] the compound record lists Synergy score as 0.57

Item: NC(=O)Nc1cc(-c2cccc(F)c2)sc1C(=O)N[C@H]1CCCNC1 [AZD7762] | Synergy score: 1.21

Value of measured Synergy score for the entry COc1ccc(C2=N[C@@H](c3ccc(Cl)cc3)[C@@H](c3ccc(Cl)cc3)N2C(=O)N2CCNC(=O)C2)c(OC(C)C)c1 [Nutlin-3] : 0.34
